Endpoint: MIC. System: ATCC 25986 Collinsella aerofaciens. Items follow.
The reply should be a number in µg/mL, with the unit left off.

Look up MIC with ATCC 25986 Collinsella aerofaciens for this compound: Cc1ncc([N+](=O)[O-])n1CCO [Metronidazole]
1

Look up MIC with ATCC 25986 Collinsella aerofaciens for this compound: O=C(O)c1cn(C2CC2)c2cc(N3CCNCC3)c(F)cc2c1=O [Ciprofloxacin]
0.5

----------
Endpoint: MIC. System: ATCC 15702 Bifidobacterium infantis. Items follow.
The reply should be a number in µg/mL, with the unit left off.

These recorded examples may help you get a feel for the data.
>  <compound>
O=C(O)c1cn(C2CC2)c2cc(N3CCNCC3)c(F)cc2c1=O [Ciprofloxacin]

>  <unit-string>
µg/mL

>  <recorded-result>
4

$$$$
>  <compound>
CO[C@H]1/C=C/O[C@@]2(C)Oc3c(C)c(O)c4c(O)c(c5c(nc6cc(C)ccn65)c4c3C2=O)NC(=O)/C(C)=C\C=C\[C@H](C)[C@H](O)[C@@H](C)[C@@H](O)[C@@H](C)[C@H](OC(C)=O)[C@@H]1C [Rifaximin]

>  <unit-string>
µg/mL

>  <recorded-result>
0.125

$$$$

Consider the additional compound presented here.
Dear colleague, I am looking for the recorded MIC of the following compound: Cc1ncc([N+](=O)[O-])n1CCO [Metronidazole]
8
